- protocol_summary: Cytotoxicity, microtetrazolium test (MTT)
- condition_summary: dog, MDCK cells, CC50 (MDCK), mean ±SD
Where a name gives a salt, the structure may show the parent alone.
Consider the following molecules; for each one, report its log10(CC50 at 48 h).
Heads up, the numbers here are log10 of CC50 at 48 h in µg/mL units.

For each listed entry, give its log10(CC50 at 48 h).
1. CNC(=O)c1c(N(Cc2ccccc2Cl)C(C)=O)sc2c(Cl)c(O)ccc12
2. CNC(=O)c1c(N(Cc2ccccc2F)C(C)=O)sc2c(Cl)c(O)ccc12
3. CCN(CC)Cc1c(O)ccc2c(C(=O)OC)c(N(Cc3ccccc3)C(C)=O)sc12 [Example 64, hydrochloride]

1: 1.51; 2: 1.45; 3: 2.17

For each listed entry, give its log10(CC50 at 48 h).
1. CCOC(=O)c1c(N(Cc2ccccc2Cl)C(C)=O)sc2c(Cl)c(O)ccc12
2. CC(=O)N(Cc1ccccc1)c1sc2c(Cl)c(O)ccc2c1C(=O)OC(C)(C)C
3. COC(=O)c1c(N(Cc2cccc(F)c2)C(C)=O)sc2c(Cl)c(O)ccc12
4. CC(=O)N(Cc1ccccc1)c1sc2cc(O)ccc2c1C(N)=O
5. COC(=O)c1c(N(Cc2ccccc2)C(C)=O)sc2c(Cl)c(O)ccc12
6. CCNC(=O)c1c(N(Cc2ccccc2)C(C)=O)sc2cc(O)ccc12

1. 0.92
2. 0.61
3. 1.41
4. 2.40
5. 0.65
6. 2.40

###

- protocol_summary: Cytotoxicity, microtetrazolium test (MTT)
- condition_summary: dog, MDCK cells, CC50 (MDCK), mean ±SD
Consider the following compounds; for each one, report its CC50 at 48 h.

Reference set (2 entries):
[[record]]
compound_smiles = "CNC(=O)c1c(N(Cc2ccccc2F)C(C)=O)sc2cc(O)ccc12"
measurement_type = "CC50 at 48 h"
measured_result = "> 300 µg/mL"

[[record]]
compound_smiles = "COC(=O)c1c(N(CCc2ccccc2)C(C)=O)sc2cc(O)ccc12"
measurement_type = "CC50 at 48 h"
measured_result = "> 300 µg/mL"


Next compound, please.
Fill blank: measured CC50 at 48 h of the compound COC(=O)c1c(N(Cc2ccc(F)cc2F)C(C)=O)sc2cc(O)ccc12 is ____.
> 300 µg/mL
